# experimentNotes: Inhibition of beta-lactamase VIM-1
parameter: IC50

Dear colleague, I am looking for the recorded IC50 of the following compound: CC1(C)[C@H](NC(=O)/C(=N\OCc2cc(=O)c(O)cn2O)c2csc(N)n2)C(=O)N1OS(=O)(=O)O (stereo in doubt)
> 500 µM

---

# Tested on: Acinetobacter baumannii
# experimentNotes: Antimicrobial activity against Acinetobacter baumannii HPA 327009 harboring beta-lactamase OXA-25 by broth dilution method
# Format: functional
parameter: MIC (µg/mL)
Report as a plain number; the unit µg/mL is understood.

// query MIC value for entry C[C@H]1[C@H](NC(=O)/C(=N\OC(C)(C)C(=O)O)c2csc(N)n2)C(=O)N1S(=O)(=O)O
16

Which MIC value is on record for CC1(C)[C@H](NC(=O)/C(=N\OCc2cc(=O)c(O)cn2O)c2csc(N)n2)C(=O)N1OS(=O)(=O)O (stereo in doubt) ?
4

---

# targetUnderTest: Beta-lactamase (Citrobacter freundii, UniProt P05193)
# Sequence (P05193 whole entry): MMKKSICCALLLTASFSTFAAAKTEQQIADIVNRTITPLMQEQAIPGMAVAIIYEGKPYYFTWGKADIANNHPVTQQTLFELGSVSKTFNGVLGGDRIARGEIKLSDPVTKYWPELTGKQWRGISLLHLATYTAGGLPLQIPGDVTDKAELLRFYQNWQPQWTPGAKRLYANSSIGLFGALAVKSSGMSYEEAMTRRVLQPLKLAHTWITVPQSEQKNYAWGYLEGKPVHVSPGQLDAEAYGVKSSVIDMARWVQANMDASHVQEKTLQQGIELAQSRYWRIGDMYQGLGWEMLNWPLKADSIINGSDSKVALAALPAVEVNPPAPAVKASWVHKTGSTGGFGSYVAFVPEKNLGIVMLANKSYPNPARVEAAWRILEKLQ
# experimentNotes: Inhibition of Citrobacter freundii AmpC
parameter: IC50 (nM)
The answer is to be given in nM; state only the numeric part.

# lookup: IC50 of CC1(C)[C@H](NC(=O)/C(=N\OCc2cc(=O)c(O)cn2O)c2csc(N)n2)C(=O)N1OS(=O)(=O)O (stereo in doubt)
2700

---

# experimentNotes: Inhibition of beta-lactamase KPC-2
pIC50: −log10 of the molar value.
parameter: pIC50

# query: pIC50 of entry C[C@H]1[C@H](NC(=O)/C(=N\OC(C)(C)C(=O)O)c2csc(N)n2)C(=O)N1S(=O)(=O)O [AZTREONAM]
< 2.60

Any idea what its pIC50 is? The molecule is CC1(C)[C@H](NC(=O)/C(=N\OCc2cc(=O)c(O)cn2O)c2csc(N)n2)C(=O)N1OS(=O)(=O)O (stereo in doubt)
< 2.60

---

Give measured MIC for each item. Keep answers brief.
# Test system: Pseudomonas aeruginosa
# experimentNotes: microbe, parasite or virus in culture
# conditionSummary: PAO1
# Description: Antimicrobial activity against Pseudomonas aeruginosa PAO1 by broth dilution method
Quick reminder: number only, in µg/mL, skip the unit.

What value of MIC on Pseudomonas aeruginosa does CC(C)(O/N=C(\C(=O)N[C@@H]1C(=O)N2C(C(=O)[O-])=C(C[n+]3ccccc3)CS[C@H]12)c1csc(N)n1)C(=O)O have?
1

Can you look up MIC on Pseudomonas aeruginosa for C[C@@H](O)[C@H]1C(=O)N2C(C(=O)O)=C(SCCNC=N)C[C@H]12 [IMIPENEM ANHYDROUS] ?
2

Lab note: need MIC for C[C@@H](O)[C@H]1C(=O)N2C(C(=O)O)=C(S[C@@H]3CN[C@H](C(=O)N(C)C)C3)[C@H](C)[C@H]12 on Pseudomonas aeruginosa, anyone have it?
1

Find MIC (Pseudomonas aeruginosa) for the entry CC1(C)[C@H](NC(=O)/C(=N\OCc2cc(=O)c(O)cn2O)c2csc(N)n2)C(=O)N1OS(=O)(=O)O (stereo in doubt)
2

---

Task for the reader: assign each of the following compounds its reported MIC90.
# Tested on: Burkholderia sp.
# experimentNotes: Antimicrobial activity against Burkholderia sp. by broth dilution method
# Assay type: functional
Report the figure in µg/mL without appending any unit label.

GET /values?readout=MIC90&item= CO/N=C(\C(=O)N[C@@H]1C(=O)N2C(C(=O)[O-])=C(C[N+]3(C)CCCC3)CS[C@H]12)c1csc(N)n1
16

What value of measured MIC90 is listed for CC1(C)[C@H](NC(=O)/C(=N\OCc2cc(=O)c(O)cn2O)c2csc(N)n2)C(=O)N1OS(=O)(=O)O (stereo in doubt) ?
0.125

Consider the compound shown here: C[C@@H](O)[C@H]1C(=O)N2C(C(=O)O)=C(S[C@@H]3CN[C@H](C(=O)N(C)C)C3)[C@H](C)[C@H]12 What is its recorded MIC90?
4

Would you mind telling me what MIC90 value was observed for CC(C)(O/N=C(\C(=O)N[C@@H]1C(=O)N2C(C(=O)[O-])=C(C[n+]3ccccc3)CS[C@H]12)c1csc(N)n1)C(=O)O ?
8

---

Assign MIC90 to each entry below.
# System: Proteus mirabilis
# experimentNotes: Antimicrobial activity against Proteus mirabilis by broth dilution method
# Assay type: functional
# number only, unit µg/mL dropped from output

Please give the measured MIC90 for this compound: CC(C)(O/N=C(\C(=O)N[C@@H]1C(=O)N2C(C(=O)[O-])=C(C[n+]3ccccc3)CS[C@H]12)c1csc(N)n1)C(=O)O [CEFTAZIDIME]
0.25

So what does the record say about MIC90 for C[C@@H](O)[C@H]1C(=O)N2C(C(=O)O)=C(SCCNC=N)C[C@H]12 [IMIPENEM ANHYDROUS] ?
8

For the compound CC1(C)[C@H](NC(=O)/C(=N\OCc2cc(=O)c(O)cn2O)c2csc(N)n2)C(=O)N1OS(=O)(=O)O (stereo in doubt) , what MIC90 is on record?
0.25

Quick one: MIC90 of C[C@@H](O)[C@H]1C(=O)N2C(C(=O)O)=C(S[C@@H]3CN[C@H](C(=O)N(C)C)C3)[C@H](C)[C@H]12 [MEROPENEM] ?
0.5

Reported MIC90 for CO/N=C(\C(=O)N[C@@H]1C(=O)N2C(C(=O)[O-])=C(C[N+]3(C)CCCC3)CS[C@H]12)c1csc(N)n1 : what is it?
1

---

# Tested on: Serratia marcescens
# experimentNotes: Antimicrobial activity against Serratia marcescens S6 harboring beta-lactamase SME-1.AmpC by broth dilution method
# Format: functional
parameter: MIC (µg/mL)
Give just the number in µg/mL; leave the unit off.

Look up MIC for this molecule: C[C@@H](O)[C@H]1C(=O)N2C(C(=O)O)=C(S[C@@H]3CN[C@H](C(=O)N(C)C)C3)[C@H](C)[C@H]12
32

Fill in the blank: the reported MIC of C[C@H]1[C@H](NC(=O)/C(=N\OC(C)(C)C(=O)O)c2csc(N)n2)C(=O)N1S(=O)(=O)O is ____.
16

---

# Test system: Klebsiella oxytoca
# experimentNotes: Antimicrobial activity against Klebsiella oxytoca by broth dilution method
# Type: functional
Threshold 1 µg/mL. MIC50 below it: true. MIC50 at it or above: false.

Take the molecule CO/N=C(\C(=O)N[C@@H]1C(=O)N2C(C(=O)[O-])=C(C[N+]3(C)CCCC3)CS[C@H]12)c1csc(N)n1 and say whether its MIC50 is less than 1 µg/mL.
false

Consider the molecule C[C@@H](O)[C@H]1C(=O)N2C(C(=O)O)=C(S[C@@H]3CN[C@H](C(=O)N(C)C)C3)[C@H](C)[C@H]12 . Is its MIC50 strictly less than 1 µg/mL?
true

Please check: MIC50 for C[C@@H](O)[C@H]1C(=O)N2C(C(=O)O)=C(SCCNC=N)C[C@H]12 [IMIPENEM ANHYDROUS] , strictly under 1 µg/mL or not?
true

Problem: For the molecule C[C@H]1[C@H](NC(=O)/C(=N\OC(C)(C)C(=O)O)c2csc(N)n2)C(=O)N1S(=O)(=O)O , is MIC50 under 1 µg/mL?
false

I wonder whether CC1(C)[C@H](NC(=O)/C(=N\OCc2cc(=O)c(O)cn2O)c2csc(N)n2)C(=O)N1OS(=O)(=O)O (stereo in doubt) has MIC50 below 1 µg/mL. Can you tell?
true

---

# System: Citrobacter freundii
# experimentNotes: Antimicrobial activity against Citrobacter freundii by broth dilution method
# Format: functional
parameter: MIC50 (µg/mL)
Lab book: enter the figure in µg/mL, no units written.

For CC1(C)[C@H](NC(=O)/C(=N\OCc2cc(=O)c(O)cn2O)c2csc(N)n2)C(=O)N1OS(=O)(=O)O (stereo in doubt) , what is its reported MIC50?
4

Reported MIC50, molecule CO/N=C(\C(=O)N[C@@H]1C(=O)N2C(C(=O)[O-])=C(C[N+]3(C)CCCC3)CS[C@H]12)c1csc(N)n1 : ____
1

Form field: reported MIC50 of C[C@@H](O)[C@H]1C(=O)N2C(C(=O)O)=C(SCCNC=N)C[C@H]12 [IMIPENEM ANHYDROUS]
1

---

# experimentNotes: Inhibition of Pseudomonas aeruginosa 18S/H beta-lactamase class C
parameter: IC50
Answer shape: numeric part, then the unit.

Quick one: IC50 for CC1(C)[C@H](NC(=O)/C(=N\OCc2cc(=O)c(O)cn2O)c2csc(N)n2)C(=O)N1OS(=O)(=O)O (stereo in doubt) ?
28 µM

---

# experimentNotes: Inhibition of beta-lactamase SHV-2
parameter: pIC50
Friendly reminder that pIC50 comes from taking -log10 of the concentration in mol/L.

Which pIC50 is listed for CC1(C)[C@H](NC(=O)/C(=N\OCc2cc(=O)c(O)cn2O)c2csc(N)n2)C(=O)N1OS(=O)(=O)O (stereo in doubt) ?
5.47

---

# experimentNotes: Inhibition of Pseudomonas aeruginosa 143724R beta-lactamase class C
parameter: pIC50
When answering, recall that pIC50 equals minus log10 of the concentration in mol/L, and write that number alone.

What does the record list as pIC50 for CC1(C)[C@H](NC(=O)/C(=N\OCc2cc(=O)c(O)cn2O)c2csc(N)n2)C(=O)N1OS(=O)(=O)O (stereo in doubt) ?
4.57
